- assayComment: Plasma binding (equilibrium dialysis)
- Assay type: in vitro ADME
- conditionContext: mixed breeds, dog plasma, read-out: % Bound (converted)
resultType: fraction unbound at 10 μM
// no unit, no text: just the number

[in] Supply recorded fraction unbound at 10 μM for CCOc1ccc(-c2ccc(Cn3c(CC(C)(C)C(=O)[O-])c(SC(C)(C)C)c4cc(OCc5ccc(C)cn5)ccc43)cc2)cn1.[Na+] [Compound 2] here.
[out] 0.003

###

- assayComment: Phase I study: pharmacokinetics after single and multiple oral doses
- Assay type: in vivo
- conditionContext: human, plasma, oral, 150 mg, multiple dose 150 mg, Day 1
resultType: Tmax (h)
A number alone suffices; assume h.

[in] Supply recorded Tmax for CCOc1ccc(-c2ccc(Cn3c(CC(C)(C)C(=O)[O-])c(SC(C)(C)C)c4cc(OCc5ccc(C)cn5)ccc43)cc2)cn1.[Na+] [Compound 2] here.
[out] 2.3

###

- assayComment: Single-dose pharmacokinetics in beagle dogs
- Format: in vivo, female beagle dogs
- conditionContext: female, beagle, dog, plasma, po, 6.5 mg/kg, 50 mg Pill, Fasted
resultType: AUC(0-inf) (ng·h/mL)
A number alone suffices; assume ng·h/mL.

[in] Supply recorded AUC(0-inf) for CCOc1ccc(-c2ccc(Cn3c(CC(C)(C)C(=O)[O-])c(SC(C)(C)C)c4cc(OCc5ccc(C)cn5)ccc43)cc2)cn1.[Na+] here.
[out] 41000

###

- assayComment: Plasma binding (equilibrium dialysis)
- Type: in vitro ADME
- conditionContext: mixed breeds, rat plasma, read-out: % Bound (converted)
resultType: fraction unbound at 10 μM
// no unit, no text: just the number

[in] Supply recorded fraction unbound at 10 μM for CCOc1ccc(-c2ccc(Cn3c(CC(C)(C)C(=O)[O-])c(SC(C)(C)C)c4cc(OCc5ccc(C)cn5)ccc43)cc2)cn1.[Na+] [Compound 2] here.
[out] 0.002

###

- assayComment: Phase I study: pharmacokinetics after single and multiple oral doses
- Assay type: in vivo
- conditionContext: human, plasma, oral, 450 mg, multiple dose 450 mg, Day 1; read-out: t½ (converted)
resultType: half-life
A complete answer gives the number and then names the unit.

[in] Supply recorded half-life for CCOc1ccc(-c2ccc(Cn3c(CC(C)(C)C(=O)[O-])c(SC(C)(C)C)c4cc(OCc5ccc(C)cn5)ccc43)cc2)cn1.[Na+] here.
[out] 12 h

###

- assayComment: Phase I study: pharmacokinetics after single and multiple oral doses
- Type: in vivo
- conditionContext: human, plasma, oral, 450 mg, multiple dose 450 mg, Day 11
resultType: Tmax (h)
A number alone suffices; assume h.

[in] Supply recorded Tmax for CCOc1ccc(-c2ccc(Cn3c(CC(C)(C)C(=O)[O-])c(SC(C)(C)C)c4cc(OCc5ccc(C)cn5)ccc43)cc2)cn1.[Na+] here.
[out] 2

###

- assayComment: Phase I study: pharmacokinetics after single and multiple oral doses
- Format: in vivo
- conditionContext: human, plasma, oral, 50 mg, multiple dose 50 mg, Day 1; read-out: AUClast
resultType: AUC(0-t) (µM·h)
A number alone suffices; assume µM·h.

[in] Supply recorded AUC(0-t) for CCOc1ccc(-c2ccc(Cn3c(CC(C)(C)C(=O)[O-])c(SC(C)(C)C)c4cc(OCc5ccc(C)cn5)ccc43)cc2)cn1.[Na+] [Compound 2] here.
[out] 8.3

###

- assayComment: Phase I study: pharmacokinetics after single and multiple oral doses
- Type: in vivo
- conditionContext: human, plasma, po, 1000 mg, single dose 1000 mg, oral solution
resultType: Cmax (µM)
A number alone suffices; assume µM.

[in] Supply recorded Cmax for CCOc1ccc(-c2ccc(Cn3c(CC(C)(C)C(=O)[O-])c(SC(C)(C)C)c4cc(OCc5ccc(C)cn5)ccc43)cc2)cn1.[Na+] here.
[out] 18.2

###

- assayComment: Phase I study: pharmacokinetics after single and multiple oral doses
- Format: in vivo
- conditionContext: human, plasma, po, 300 mg, single dose 300 mg, oral solution; read-out: AUC0-24
resultType: AUC(0-t) (µM·h)
A number alone suffices; assume µM·h.

[in] Supply recorded AUC(0-t) for CCOc1ccc(-c2ccc(Cn3c(CC(C)(C)C(=O)[O-])c(SC(C)(C)C)c4cc(OCc5ccc(C)cn5)ccc43)cc2)cn1.[Na+] here.
[out] 23.6

###

- assayComment: Phase I study: pharmacokinetics after single and multiple oral doses
- Format: in vivo
- conditionContext: human, plasma, po, 50 mg, single dose 50 mg, oral solution; read-out: AUC0-24
resultType: AUC(0-t) (µM·h)
A number alone suffices; assume µM·h.

[in] Supply recorded AUC(0-t) for CCOc1ccc(-c2ccc(Cn3c(CC(C)(C)C(=O)[O-])c(SC(C)(C)C)c4cc(OCc5ccc(C)cn5)ccc43)cc2)cn1.[Na+] [Compound 2] here.
[out] 6.5

###

- assayComment: Phase I study: pharmacokinetics after single and multiple oral doses
- Type: in vivo
- conditionContext: human, plasma, oral, 150 mg, multiple dose 150 mg, Day 11
resultType: Tmax (h)
A number alone suffices; assume h.

[in] Supply recorded Tmax for CCOc1ccc(-c2ccc(Cn3c(CC(C)(C)C(=O)[O-])c(SC(C)(C)C)c4cc(OCc5ccc(C)cn5)ccc43)cc2)cn1.[Na+] here.
[out] 2

###

- assayComment: Phase I study: pharmacokinetics after single and multiple oral doses
- Assay type: in vivo
- conditionContext: human, plasma, oral, 450 mg, multiple dose 450 mg, Day 11
resultType: Cmax
A complete answer gives the number and then names the unit.

[in] Supply recorded Cmax for CCOc1ccc(-c2ccc(Cn3c(CC(C)(C)C(=O)[O-])c(SC(C)(C)C)c4cc(OCc5ccc(C)cn5)ccc43)cc2)cn1.[Na+] here.
[out] 9.3 µM

###

- assayComment: Single-dose pharmacokinetics in beagle dogs
- Type: in vivo, female beagle dogs
- conditionContext: female, beagle, dog, plasma, po, 6.5 mg/kg, Oral, 50 mg Pill, 6.5 mg/kg, Fed; read-out: Cmax
resultType: Cmax (ng/mL)
A number alone suffices; assume ng/mL.

[in] Supply recorded Cmax for CCOc1ccc(-c2ccc(Cn3c(CC(C)(C)C(=O)[O-])c(SC(C)(C)C)c4cc(OCc5ccc(C)cn5)ccc43)cc2)cn1.[Na+] [Compound 2] here.
[out] 3200

###

- assayComment: Phase I study: pharmacokinetics after single and multiple oral doses
- Format: in vivo
- conditionContext: human, plasma, oral, 450 mg, multiple dose 450 mg, Day 1; read-out: AUClast
resultType: AUC(0-t) (µM·h)
A number alone suffices; assume µM·h.

[in] Supply recorded AUC(0-t) for CCOc1ccc(-c2ccc(Cn3c(CC(C)(C)C(=O)[O-])c(SC(C)(C)C)c4cc(OCc5ccc(C)cn5)ccc43)cc2)cn1.[Na+] [Compound 2] here.
[out] 57

###

- assayComment: Phase I study: pharmacokinetics after single and multiple oral doses
- Type: in vivo
- conditionContext: human, plasma, oral, 150 mg, multiple dose 150 mg, Day 1
resultType: Cmax (nM)
A number alone suffices; assume nM.

[in] Supply recorded Cmax for CCOc1ccc(-c2ccc(Cn3c(CC(C)(C)C(=O)[O-])c(SC(C)(C)C)c4cc(OCc5ccc(C)cn5)ccc43)cc2)cn1.[Na+] [Compound 2] here.
[out] 1400

###

- assayComment: Phase I study: pharmacokinetics after single and multiple oral doses
- Assay type: in vivo
- conditionContext: human, plasma, oral, 150 mg, multiple dose 150 mg, Day 1; read-out: t½ (converted)
- Protocol: Study Design: Single center, double-blind, randomized, placebo-controlled, single ascending dose followed by multiple ascending dose study. […] Plasma concentrations of Compound 1 were determined using a validated LC/MS method. […] Analysis of Samples: Concentrations of Compound 1 was determined in plasma samples collected from subjects. Similarly, concentrations of LTB4 in plasma and urinary LTE4 were determined in blood and urine samples collected.
resultType: half-life (h)
A number alone suffices; assume h.

[in] Supply recorded half-life for CCOc1ccc(-c2ccc(Cn3c(CC(C)(C)C(=O)[O-])c(SC(C)(C)C)c4cc(OCc5ccc(C)cn5)ccc43)cc2)cn1.[Na+] [Compound 2] here.
[out] 16

###

- assayComment: Phase I study: pharmacokinetics after single and multiple oral doses
- Assay type: in vivo
- conditionContext: human, plasma, oral, 50 mg, multiple dose 50 mg, Day 11; read-out: AUClast
resultType: AUC(0-t) (µM·h)
A number alone suffices; assume µM·h.

[in] Supply recorded AUC(0-t) for CCOc1ccc(-c2ccc(Cn3c(CC(C)(C)C(=O)[O-])c(SC(C)(C)C)c4cc(OCc5ccc(C)cn5)ccc43)cc2)cn1.[Na+] here.
[out] 13.5

###

- assayComment: Plasma binding (equilibrium dialysis)
- Assay type: in vitro ADME
- conditionContext: human plasma, read-out: % Bound (converted)
resultType: fraction unbound at 10 μM
// no unit, no text: just the number

[in] Supply recorded fraction unbound at 10 μM for CCOc1ccc(-c2ccc(Cn3c(CC(C)(C)C(=O)[O-])c(SC(C)(C)C)c4cc(OCc5ccc(C)cn5)ccc43)cc2)cn1.[Na+] here.
[out] 0.005
